assay_system: E3 ubiquitin-protein ligase UHRF1 (Homo sapiens) (UniProt Q96T88)
Sequence (Q96T88 whole entry, looked up, the tested form may be a part): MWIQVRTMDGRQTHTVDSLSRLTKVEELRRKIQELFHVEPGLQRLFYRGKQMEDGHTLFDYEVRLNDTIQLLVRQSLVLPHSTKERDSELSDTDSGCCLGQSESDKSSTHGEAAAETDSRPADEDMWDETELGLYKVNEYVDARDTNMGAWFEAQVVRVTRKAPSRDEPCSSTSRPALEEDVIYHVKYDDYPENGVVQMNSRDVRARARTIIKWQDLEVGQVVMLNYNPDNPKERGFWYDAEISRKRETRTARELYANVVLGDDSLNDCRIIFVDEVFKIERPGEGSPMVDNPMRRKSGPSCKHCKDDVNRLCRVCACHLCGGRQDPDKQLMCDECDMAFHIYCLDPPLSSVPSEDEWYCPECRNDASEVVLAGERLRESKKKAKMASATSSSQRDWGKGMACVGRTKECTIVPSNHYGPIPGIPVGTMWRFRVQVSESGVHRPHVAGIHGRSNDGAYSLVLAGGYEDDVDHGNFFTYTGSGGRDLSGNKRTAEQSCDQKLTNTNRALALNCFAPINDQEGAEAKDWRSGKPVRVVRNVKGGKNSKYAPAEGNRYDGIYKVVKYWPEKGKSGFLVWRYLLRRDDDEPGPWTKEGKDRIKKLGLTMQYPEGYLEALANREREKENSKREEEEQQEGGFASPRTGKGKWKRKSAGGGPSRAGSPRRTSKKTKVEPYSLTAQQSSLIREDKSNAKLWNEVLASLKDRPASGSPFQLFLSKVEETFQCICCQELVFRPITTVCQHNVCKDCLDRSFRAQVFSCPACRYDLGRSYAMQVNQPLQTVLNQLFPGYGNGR
procedure_text: blockers of UHRF1 binding to methyl-oligo – biochemical, TR-FRET, human UHRF1, single concentration, counter-screen for MBD2 inhibitor project, primary screen (AID 687016);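 note: UHRF1 SRA domain binding a hemimethylated CpG hairpin DNA probe; 0% = median of test compound wells and 100% = reference inhibitor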
experimental_parameters: UHRF1 binding to methylated oligo, at 4.4 µM, stronger effect = higher value
Hit rate of the full screen: of about 370,000 compounds, about 2,800 (0.76%) were called active. The full list was thinned out, with actives kept by preference.
Recorded inhibition, one value per entry.
property_measured: inhibition (%)

compound=CCCCOc1ccc(C(=O)NCc2ccco2)cc1 recorded_result=25
compound=C=CCc1cccc2cc(C(=O)Nc3ccc(NC(C)=O)cc3)c(=O)oc12 recorded_result=28.9
compound=Cc1cc(NC(=O)COC(=O)COc2ccc(Cl)cc2C)c([N+](=O)[O-])cc1C recorded_result=23
compound=Cc1ccc(NC(=O)Cn2sc3ccccc3c2=O)cc1 recorded_result=-0.79
compound=Cc1cc(C)c(C#N)c(SCC(=O)NN2CC(=O)N(c3ccccc3F)CC2=O)n1 recorded_result=1.74
compound=COC(=O)[C@]12C[C@H](CC(=O)NCCC(C)C)C(=O)N(CCc3ccc(OC)c(OC)c3)C1=C[C@H](C(C)(C)C)O[C@@H]2C recorded_result=34.2
compound=CCCC1=Nc2cc(C(=O)NCc3ccco3)ccc2Sc2ccccc21 recorded_result=0.66
compound="CC(C)CNS(=O)(=O)CC1NCCc2ccccc21 (configuration not stated)" recorded_result=1.66
compound=CCCC(=O)OCC(=O)Nc1cc(Cl)ccc1[N+](=O)[O-] recorded_result=-3.24
compound=O=C(COC(=O)c1cccc(Cl)c1)NC(=O)NCc1ccccc1 recorded_result=-0.3
compound="COC(=O)C1CN(Cc2ccc(F)cc2)CCS(=O)(=O)N1Cc1ccc(Cl)cc1 (configuration not stated)" recorded_result=2.67
compound=O=C(COc1cccc(Cl)c1)NCc1ccccc1 recorded_result=36
compound="CC(CCN1CCC(C(O)(c2ccccc2)c2ccccc2)CC1)Oc1ccc(Cl)cc1 (configuration not stated)" recorded_result=1.4
compound=COc1ccc(C(=O)NNc2cc(C)nc(NNC(=O)c3ccc(OC)cc3)n2)cc1 recorded_result=20.7
compound=COc1ccc(C(=O)NCCSc2ccccc2C)cc1 recorded_result=0.98
compound=Fc1ccc2nc(COCc3nc4ccc(F)cc4[nH]3)[nH]c2c1 recorded_result=0.71
compound=O=C(O)CCCn1cc(NC(=O)COc2cccc(Cl)c2)cn1 recorded_result=5.22
compound=CN(C)Cc1cn(-c2ccc(-c3noc4c3C(=O)N(CC(=O)N3CCOCC3)CC4)cc2)nn1 recorded_result=2.67
compound=C=CCc1cccc2cc(C(=O)N3CCN(C(=O)OCC)CC3)c(=O)oc12 recorded_result=-2.84
compound=C=CCc1cccc2cc(C(=O)NC3CCCC3)c(=O)oc12 recorded_result=2.45
compound="COc1ccc(CN2C(=O)N3Cc4cc(OC)ccc4C3CS2(=O)=O)cc1 (configuration not stated)" recorded_result=-0.8
compound=COc1cccc(Cn2cc(COC(=O)Nc3ccc(F)cc3)nn2)c1 recorded_result=0.48

----------
assay_system: E3 ubiquitin-protein ligase UHRF1 (Homo sapiens)
procedure_text: blockers of UHRF1 binding to methyl-oligo – biochemical, TR-FRET, human UHRF1, single concentration, counter-screen for MBD2 inhibitor project, primary screen (AID 687016);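 note: UHRF1 SRA domain binding a hemimethylated CpG hairpin DNA probe; 0% = median of test compound wells and 100% = reference inhibitor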
experimental_parameters: UHRF1 binding to methylated oligo, at 4.4 µM
Out of some 370,000 compounds screened, about 2,800 (0.76%) were called active. No stated cut-off is given here; in the data, active means inhibition above about 21%; inactive means the rest. Shown is part of a subset that was picked to be rich in actives.
Possible outcomes: active, inactive

compound=CSc1ccc(C=Nn2c(-c3ccc(F)cc3)n[nH]c2=S)cc1 assigned_category=inactive
compound=Cc1noc(C)c1NC(=O)Nc1ccc2c(c1)C(=O)N([C@H](C)CO)C[C@H](C)[C@@H](CN(C)C(=O)Nc1ccccc1)O2 assigned_category=active
compound=COc1ccc(N2CCN(CCNS(=O)(=O)c3ccc(C(C)(C)C)cc3)CC2)cc1 assigned_category=inactive
compound=CN(CCO)c1cccc2c1S(=O)(=O)N(Cc1cn(Cc3ccc(C(F)(F)F)cc3)nn1)Cc1ccccc1O2 assigned_category=inactive
compound="O=C(NC1CCCCN(Cc2cccc(C(F)(F)F)c2)C1=O)c1ccccc1I (centres undefined)" assigned_category=inactive
compound=C#CCCN([C@H](C(=O)OC)C(C)C)S(=O)(=O)c1ccc(F)cc1Br assigned_category=inactive
compound="COc1cc(NC(=O)C2CCCN(S(=O)(=O)c3ccc(C(C)(C)C)cc3)C2)cc(OC)c1 (centres undefined)" assigned_category=inactive
compound=Cc1c[nH]c2cccc(-c3ccc(Cl)cc3)c12 assigned_category=inactive
compound=N#Cc1ccc(OC[C@@H](O)CN2CCC(C(O)(c3ccccc3)c3ccccc3)CC2)c(F)c1 assigned_category=inactive
